system: Zika virus NS2B-NS3 protease (unlinked complex); assay: Primary screen GU Rhodamine qHTS for Zika virus inhibitors: Unlinked NS2B-NS3 protease assay (AID 1347159); conditions: Recombinant ZIKV NS2B-NS3 protease, Rhodamine110 substrate fluorescence; series mostly up to 107 µM; note: % is set by controls: 0 for no effect and ±100 for the full control effect; nearly all actives have a fitted effect of over 60% in size
Results filed as inconclusive are left out. Active and inactive are the calls of the source. Calls come from the whole dose curve; as a rule, active = well fitted inhibition curve with a large enough effect; inconclusive = small, poorly fitted or top-dose-only effect; inactive = no such curve, though single readings can be large or run the other way.
Pick from Yes = active, No = inactive when you respond.

Worked cases, answers included:
INSERT INTO results (molecule, cat) VALUES
  ('COC(=O)[C@H](O)[C@H]1C(C)(C)[C@H](OC(=O)C(C)C)[C@@]2(O)C(=O)[C@]1(C)C1CC[C@]3(C)C(CC(=O)O[C@H]3c3ccoc3)[C@]13O[C@@H]32 (stereo partly drawn)', 'No'),
  ('COC(=O)C1(C)c2[nH]c3ccccc3c2CCN1C(=O)CCl (stereo not drawn)', 'No'),
  ('CC(C)(C)CCN1C[C@@H]2C(CNC(=O)c3cc(Cl)cc(Cl)c3)[C@@H]2C1 (stereo partly drawn)', 'No'),
  ('CC(=O)O[C@@H]1[C@@H](CO)O[C@@](CO)(O[C@H]2O[C@H](COC(=O)/C=C/c3ccccc3)[C@@H](O)[C@H](O)[C@H]2O)[C@H]1O', 'No'),
  ('CO[C@H]1O[C@@H]2O[C@]3(C)CC[C@H]4[C@H](C)CC[C@@H]([C@H]1C)[C@@]24OO3', 'No'),
  ('C=C[C@H]1[C@H](O[C@@H]2O[C@H](CO)[C@@H](O)[C@H](O)[C@H]2O)OC=C(C(=O)OC)[C@H]1C[C@@H]1c2cc(O)c(O)cc2CCN1C(C)=O', 'No');

## Input How was Cc1nc([C@](C)(O)CO)sc1-c1cnc(N)c(O[C@H](C)c2cc(F)ccc2-n2nccn2)c1 classified in this test?
## Output No

## Input How was CC1(CCOC2OC(CO)C(O)C(O)C2O)CCC23OC2(C1)C(O)CC1C(C)(C(=O)O)CCCC13C (stereo not drawn) classified in this test?
## Output No

## Input How was N#Cc1ccc(C(=O)N2CCC3(CC2)N=C(N)c2c(F)ccc(F)c2N3)cn1 classified in this test?
## Output No

* * *

tested on: NIH3T3; assay: Cytotoxic Profiling of Annotated Libraries Using Quantitative High-Throughput Screening (AID 1296008); conditions: Five cell lines viability, CellTiter-Glo ATP luminescence, 48-72 h; note: nearly all actives have a fitted effect of over 60% in size
Records with an inconclusive call do not appear. Active and inactive are the calls of the source. Calls come from the whole dose curve; as a rule, active = well fitted inhibition curve with a large enough effect; inconclusive = small, poorly fitted or top-dose-only effect; inactive = flat fitted curve, though single readings scatter.
Pick from active, inactive when you respond.

Worked cases, answers included:
INSERT INTO assay_data (molecule, cat) VALUES
  ('COC(=O)CC(O)CC(O)/C=C/c1c(C)ccc2c1C(O)CC(C)C2 (stereo not drawn)', 'inactive'),
  ('COc1cc2c3c(cc4ccccc4c3c1O)NC2=O', 'inactive'),
  ('CCCNc1ccc2ncc(-c3ccc4[nH]ncc4c3)n2n1', 'active'),
  ('CNC(=O)c1cccc(-c2ccc3c(N4CCOC[C@@H]4C)nc(N4CCOC[C@@H]4C)nc3n2)c1', 'active'),
  ('C[C@H](C(=O)NC1CCCC1)N(C(=O)Cn1nnc(-c2ccc3c(c2)OCO3)n1)C1CCCCC1', 'inactive');

## Input How was CC1(C)CC[C@]2(C(=O)O)CC[C@]3(C)C(=CCC4[C@@]5(C)CC[C@H](O[C@@H]6O[C@H](CO)[C@@H](O)[C@H](O)[C@H]6O[C@@H]6O[C@H](CO)[C@@H](O)[C@H](O)[C@H]6O)[C@@](C)(CO)C5CC[C@]43C)[C@@H]2C1 (stereo partly drawn) classified in this test?
## Output inactive

## Input How was O=C(Nc1ccc(S(=O)(=O)C(F)(F)F)cc1)C1=CCN(c2ncccc2C(F)(F)F)CC1 classified in this test?
## Output active

## Input How was CN1CCN(Cc2ccc(-c3cnc4[nH]cc(-c5ccc6[nH]ccc6c5)c4c3)cc2)CC1 classified in this test?
## Output active

* * *

assay: Primary redox qHTS assay for identification of artifact compounds. (AID 1845223); settings: Amplex Red/HRP redox cycling with DTT, fluorescence; series mostly up to 53.8 µM;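 note: 0% = DMSO and 100% = reference compound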
Results filed as inconclusive are left out. Calls of active or inactive are those of the source. Calls follow the shape of the dose curve; as a rule, active = well fitted activation curve with a large enough effect; inconclusive = small, poorly fitted or top-dose-only effect; inactive = flat fitted curve, though single readings scatter.
endpoint_name: redox activity (% of DA3003)

Reference set (6 entries):
INSERT INTO measurements (compound, endpoint_name, value_observed) VALUES
  ('O=C1NC(=O)C(c2cn(-c3ccccc3)nc2-c2ccc(F)cc2)N1 (stereo not drawn)', 'redox activity (% of DA3003)', 'inactive'),
  ('CC1(C)CC[C@]2(C(=O)O[C@@H]3O[C@H](CO[C@@H]4O[C@H](CO)[C@@H](O)[C@H](O)[C@H]4O[C@@H]4O[C@H](CO)[C@@H](O)[C@H](O)[C@H]4O)[C@@H](O)[C@H](O[C@@H]4O[C@H](CO)[C@@H](O)[C@H](O)[C@H]4O)[C@H]3O)CC[C@]3(C)C(=CCC4[C@@]5(C)CC[C@@H](O)[C@@](C)(C(=O)O[C@@H]6O[C@H](CO)[C@@H](O)[C@H](O)[C@H]6O)C5CC[C@]43C)[C@@H]2C1 (stereo partly drawn)', 'redox activity (% of DA3003)', '5.34% [at 11.5 µM] (inactive)'),
  ('C=C1C[C@]23C[C@H]1CC[C@H]2C1=C[C@H]2OC(=O)[C@@](C)([C@H]1[C@@H]3C(=O)O)[C@H]2O', 'redox activity (% of DA3003)', 'inactive'),
  ('CCCCC1CCN(CCCC(=O)c2ccccc2C)CC1', 'redox activity (% of DA3003)', 'inactive'),
  ('CN(C)C/C=C/C(=O)Nc1cccc(C(=O)Nc2cccc(Nc3ncc(Cl)c(-c4c[nH]c5ccccc45)n3)c2)c1', 'redox activity (% of DA3003)', 'inactive'),
  ('CCOC(=O)c1sc(NC(=O)[C@H](C(C)C)n2c(=O)[nH]c3ccccc3c2=O)nc1C', 'redox activity (% of DA3003)', 'inactive');

Now let's try a different one.
# redox activity (% of DA3003) (compound: C=CC(C)(O)CC/C=C(\C)C(=O)OC1C(O)C(CO)OC(OC(=O)C23CCC(C)(C)CC2C2=CCC4C5(C)CCC(OC6OC(COC7OCC(OC(C)=O)C(O)C7OC7OC(COC(C)=O)C(O)C(O)C7O)C(O)C(O)C6O)C(C)(C)C5CCC4(C)C2(C)C(O)C3O)C1OC1OCC(OC2OCC(O)C(OC3OCC(O)C(O)C3O)C2O)C(O)C1O (stereo not drawn) ) is -2.76% [at 6.41 µM] (inactive)

* * *

system: Zika virus NS2B-NS3 protease (linked construct); assay: 384 well plate NINDS Rhodamine confirmatory qHTS for Zika virus inhibitors (AID 1347164); settings: rhodamine-110 peptide substrate fluorescence; series mostly up to 100 µM;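 note: fluorescence from protease cleavage of Ac-LKRR-rhodamine 110 substrate; nearly all actives have a fitted effect of over 65% in size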
Records with an inconclusive call do not appear. Active and inactive are the calls of the source. Calls come from the whole dose curve; as a rule, active = well fitted inhibition curve with a large enough effect; inconclusive = small, poorly fitted or top-dose-only effect; inactive = no such curve, though single readings can be large or run the other way.
Pick from label 1 (active), label 0 (inactive) when you respond.

Worked cases, answers included:
INSERT INTO results (compound, tgt, cat) VALUES
  ('CC(C)c1cccc2c(-c3ccccc3)cc(-c3ccc(-c4ccc(C(=O)O)cc4)[nH]3)nc12', 'Zika virus NS2B-NS3 protease (linked construct)', 'label 0'),
  ('O=C(O)/C=C/c1ccc(-c2ccc(O)c(C34CC5CC(CC(C5)C3)C4)c2)cc1', 'Zika virus NS2B-NS3 protease (linked construct)', 'label 1'),
  ('N#CC(c1ccnc(OCc2ccc(CN3CCOCC3)cc2)n1)c1nc2ccccc2s1 (stereo not given)', 'Zika virus NS2B-NS3 protease (linked construct)', 'label 1'),
  ('Nc1ncnc2c([C@@H]3N[C@H](CO)[C@@H](O)[C@H]3O)c[nH]c12', 'Zika virus NS2B-NS3 protease (linked construct)', 'label 0'),
  ('C=CC/C=C\C/C=C\CCCCCCCc1cccc(O)c1C(=O)O', 'Zika virus NS2B-NS3 protease (linked construct)', 'label 0'),
  ('CC1=C(C(=O)OCc2ccccc2)C(c2ccc(-c3ccccc3)cc2)NC(=O)N1CCCCCC(=O)O (stereo not given)', 'Zika virus NS2B-NS3 protease (linked construct)', 'label 1'),
  ('CC1(C)CC[C@]2(C(=O)O)CC[C@]3(C)C(=CCC4[C@@]5(C)C[C@@H](O)[C@H](O)C(C)(C)C5CC[C@]43C)C2C1 (stereo not given in full)', 'Zika virus NS2B-NS3 protease (linked construct)', 'label 1'),
  ('COc1cc(Nc2nc3ccccc3nc2NS(=O)(=O)c2ccc(NC(=O)c3ccc(OC)c(C)c3)cc2)cc(OC)c1', 'Zika virus NS2B-NS3 protease (linked construct)', 'label 1');

## Input How was COc1ccc(Cl)c(Nc2nc3ccccc3nc2NS(=O)(=O)c2cccc(NC(=O)C(C)(C)N)c2)c1 classified in this test?
## Output label 1

## Input How was O=C(N/N=C/c1ccc(O)c(O)c1)c1cc2ccccc2cc1O classified in this test?
## Output label 1
